- assayed.target: T1, recombinant human Trop-2-his protein (ACCESSION NO.: NP_002344.2, AA 1-274) (human, UniProt P09758 27-274)
- T1 construct: range 27-274; also called recombinant human Trop-2 protein; recombinant human Trop-2 extracellular domain; not shown: his tag
- T1 sequence (looked up): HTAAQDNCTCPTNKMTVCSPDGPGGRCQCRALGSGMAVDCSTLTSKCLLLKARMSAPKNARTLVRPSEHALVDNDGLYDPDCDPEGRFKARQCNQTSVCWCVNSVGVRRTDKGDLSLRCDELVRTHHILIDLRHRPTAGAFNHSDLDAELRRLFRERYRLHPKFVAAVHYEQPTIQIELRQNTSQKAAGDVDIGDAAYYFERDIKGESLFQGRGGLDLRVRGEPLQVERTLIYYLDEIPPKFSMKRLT
- experiment.summary: BLI, antibody on AHC sensor, Trop-2-his 60 nM
pKd: −log10 of the molar value.
// values below are reported pKd
experimental.readout: pKd

h23-12-34 (antibody, human IgG1, kappa, V domains shown) VH: QVQLVQSGAEVKKPGASVKVSCKASGYTFTSYWMHWVRQAPGQGLEWMGEITPSDNYTSYNQKFKGRVTITRDTSTSTAYMELSSLRSEDTAVYYCARGEGNYVSFDYWGQGTLVTVSS VL: DIQMTQSPSSLSASVGDRVTITCRASQDISNYLNWYQQKPGKAPKLLIYYTSRLQSGVPSRFSGSGSGTDFTLTISSLQPEDFATYFCQQGYTLPPYTFGQGTKLEIKR :: 8.25
h23-12-41 (antibody, human IgG1, kappa, V domains shown) VH: QVQLVQSGAEVKKPGASVKVSCKASGYTFTSYWMHWVRQAPGQGLEWMGEITPSDNYTSYNQKFKGRVTITRDTSTSTAYMELSSLRSEDTAVYYCARGEGNYVSFDYWGQGTLVTVSS VL: DIQMTQSPSSLSASVGDRVTITCRASQDISNYLNWYQQKPGKAPKLLIYYTSRLHSGVPSRFSGSGSGTDFTLTISSLQPEDFATYFCQQYYTLPPYTFGQGTKLEIKR :: 9.11
